- test.description: Tryptophan fluorescent binding assay, POPC vesicles
- conditions: 50 μM peptide, PBS pH 7.4, lipid per peptide
quantity.measured: Lipid Concentration-induced 50% Peptide Binding, POPC Vesicle (L/P)
Report the value in L/P with no unit label.

compound="CC(C)C[C@H](NC(=O)CN)C(=O)N[C@@H](CC(C)C)C(=O)N[C@@H](CCCCN)C(=O)N[C@@H](CC(C)C)C(=O)N[C@@H](CC(C)C)C(=O)N[C@@H](Cc1c[nH]cn1)C(=O)N[C@@H](CC(C)C)C(=O)N[C@@H](CC(C)C)C(=O)N[C@@H](CC(C)C)C(=O)N[C@@H](CCC(=O)O)C(=O)N[C@@H](C)C(=O)N[C@@H](C)C(=O)NCC(=O)N[C@@H](Cc1c[nH]c2ccccc12)C(N)=O [KHE]" measured_number=0.88

Asked: Please indicate Lipid Concentration-induced 50% Peptide Binding, POPC Vesicle recorded for CC(C)C[C@H](NC(=O)CN)C(=O)N[C@@H](CC(C)C)C(=O)N[C@@H](CCC(=O)O)C(=O)N[C@@H](CC(C)C)C(=O)N[C@@H](CC(C)C)C(=O)N[C@@H](CCC(=O)O)C(=O)N[C@@H](CC(C)C)C(=O)N[C@@H](CC(C)C)C(=O)N[C@@H](CC(C)C)C(=O)N[C@@H](Cc1c[nH]cn1)C(=O)N[C@@H](C)C(=O)N[C@@H](C)C(=O)NCC(=O)N[C@@H](Cc1c[nH]c2ccccc12)C(N)=O [EEH]
Given back: 0.50
